Settings: Crystal
The label 1 is reserved for Normal melting temperature strictly under 50 °C; -1 covers values equal to or above it.

## Input Strictly below 50 °C in Normal melting temperature? CCCCCCCCCCCCCC(=O)O [tetradecanoic acid]
## Output -1

## Input Report whether reported Normal melting temperature is lower than 50 °C (strictly) for CCCCCCCCCCCCCCCC(=O)O [hexadecanoic acid]
## Output -1

## Input In the record for CCCCCCCCCCCCCCCCCC(=O)O [octadecanoic acid] , is Normal melting temperature less than 50 °C?
## Output -1

## Input Consider CCCCCCCCCC(=O)O [decanoic acid] . Does its Normal melting temperature lie strictly below 50 °C?
## Output 1

## Input Please check: Normal melting temperature for CCCCCCCCCCCC(=O)O [dodecanoic acid] , strictly under 50 °C or not?
## Output 1
